property-label: melting point

Reference set, count: 5
compound: Nc1cc(N2CCN(C(c3ccccc3)(c3ccccc3)c3ccccc3)CC2)nc(N)n1
melting point: 152 to 160 °C
--
compound: CCOC(=O)c1ccc(-c2ccc(OC)c3c2OCCO3)cc1
melting point: 141 to 142 °C
--
compound: CC(OCc1ccc(Cl)c2ccccc12)(C(=O)O)C(F)(F)F (stereo unspecified)
melting point: 120 to 121 °C
--
compound: CC(C)Oc1ccc(N2CCCNCC2)cc1
melting point: 62 to 64 °C
--
compound: Oc1ccc2c(c1)CCC2n1cc[nH]c1=S (stereo unspecified)
melting point: 208 to 209 °C

Attention now shifts to the item below.
Q: Reported melting point for `Cc1c(-c2ccncc2)sc(-c2ccncc2)c1C(F)F` : what is it?
A: 132 to 133 °C
